Values were extracted from patent US6133263A.

Biological target: human ETB R (Homo sapiens, UniProt P24530)
Sequence (P24530 27-442): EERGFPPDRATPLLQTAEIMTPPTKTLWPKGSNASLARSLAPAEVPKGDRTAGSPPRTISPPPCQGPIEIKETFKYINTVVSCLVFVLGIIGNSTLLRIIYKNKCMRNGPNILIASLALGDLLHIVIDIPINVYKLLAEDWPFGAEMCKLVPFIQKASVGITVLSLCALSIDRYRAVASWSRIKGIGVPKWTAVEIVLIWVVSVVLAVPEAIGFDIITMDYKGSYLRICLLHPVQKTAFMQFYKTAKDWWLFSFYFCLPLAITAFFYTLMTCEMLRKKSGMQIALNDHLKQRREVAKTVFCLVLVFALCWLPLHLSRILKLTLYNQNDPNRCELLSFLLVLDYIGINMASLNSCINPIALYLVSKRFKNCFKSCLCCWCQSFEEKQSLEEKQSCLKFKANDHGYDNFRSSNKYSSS
Experiment: [125I]-ET-1 radioligand binding assay, CHO-K1 cells expressing recombinant human ETB R (HERBA-B)
Settings: CHO cell membranes, [125I]-ET-1 40 pM, 2 hours at 37° C
Please provide measured IC50 for the entries that follow.
Write it as a number; the unit µM goes unstated.

For COc1ccc(C2(OCCN(C)C)OC(=O)C(c3ccc4c(c3)OCO4)=C2Cc2cc(OC)c(OC)c(OC)c2)cc1 (stereo not drawn) the molecule record lists IC50 as 1.08

For COc1ccc(C2(OCCN3CCOCC3)OC(=O)C(c3ccc4c(c3)OCO4)=C2Cc2cc(OC)c(OC)c(OC)c2)cc1 (stereo not drawn) the molecule record lists IC50 as 12

For COc1ccc(C2(OCCCS(=O)(=O)O)OC(=O)C(c3ccc4c(c3)OCO4)=C2Cc2cc(OC)c(OC)c(OC)c2)cc1 (stereo not drawn) the molecule record lists IC50 as 1.9

For COc1ccc(C2(OCCN3CCOCC3)OC(=O)C(c3cc(OC)c4c(c3)OCO4)=C2Cc2cc(OC)c(OC)c(OC)c2)cc1 (stereo not drawn) the molecule record lists IC50 as 0.7

For COc1ccc(C2(OCCN(C)C)OC(=O)C(c3cc(OC)cc(OC)c3)=C2Cc2cc(OC)c(OC)c(OC)c2)cc1 (stereo not drawn) the molecule record lists IC50 as 2.2
